# testSystem: T1, SgrAI P27W (UniProt Q9F6L0 1-339, P27W)
# T1 sequence: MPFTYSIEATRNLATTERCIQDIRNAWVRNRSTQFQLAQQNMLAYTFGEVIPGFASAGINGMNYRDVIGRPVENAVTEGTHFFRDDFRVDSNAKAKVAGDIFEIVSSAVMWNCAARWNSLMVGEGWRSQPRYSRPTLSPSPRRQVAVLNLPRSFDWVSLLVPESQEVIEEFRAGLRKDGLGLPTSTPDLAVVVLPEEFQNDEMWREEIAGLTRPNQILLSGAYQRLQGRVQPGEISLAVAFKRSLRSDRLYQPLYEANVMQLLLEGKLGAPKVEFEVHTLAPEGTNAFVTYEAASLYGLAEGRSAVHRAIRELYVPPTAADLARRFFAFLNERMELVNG
# protocolDetails: fluorescence polarization anisotropy; 10 mM Ca2+; FPA: 20 mM Tris-OAc pH 8.0, 50 mM KOAc, 10 mM Ca(OAc)2, 1 mM DTT, 10% glycerol, 4 C, 1 nM DNA; native PAGE: same binding buffer, 1 uM SgrAI, 30 min at 4 C, gel
# runParameters: protein: recombinant; chain copies: 2; label: 5' HEX on both strands (FPA); 5' 32P (native gel); blunt; self-complementary, 2 strand copies
testReadout: Kd (nM)
Give the value, in units of nM, as a plain number.

INPUT: Entry 18-1 (primary site) (dsDNA) DNA 1: AAGTCCACCGGTGGACTT DNA 2: AAGTCCACCGGTGGACTT has what Kd?
OUTPUT: 4
